Test: Solubility of compound in cell culture medium in presence of 0.2 % DMSO
Format: physicochemical
OBSERVABLE: solubility

Cc1cccn2c(=O)c3cc(C(=O)NCCCN4CCOCC4)c(=N)n(CCc4ccc(Br)cc4)c3nc12; 5 to 10 µM
Cc1cccn2c(=O)c3cc(C(=O)NCCN4CCN(C)CC4)c(=N)n(CCc4cccs4)c3nc12; > 90 µM

Continue with the molecule presented below.
[Q] solubility lookup needed for `Cc1cccn2c(=O)c3cc(C(=O)NCCCN4CCOCC4)c(=N)n(CCc4ccccc4)c3nc12` , thanks.
[A] 30 to 45 µM

Data credit: ChEMBL document CHEMBL4402603
